These measurements were taken from ChEMBL document CHEMBL4811216.

Entries annotated with measured mortality at 10 µM
tested on: Schistosoma japonicum; experiment: Antischistosomal activity against Schistosoma japonicum assessed as worm death at 10 uM incubated for 120 hrs relative to control; format: functional; conditions: Schistosoma japonicum
measured_parameter: mortality at 10 µM

{"compound": "COc1ccc(C(Nc2cc(C)ccn2)c2ccc3ccc(C)nc3c2O)cc1 (stereo not given)", "result": "56%"}
{"compound": "O=[N+]([O-])c1ccc2c(c1)S(=O)(=O)C=C2", "result": "69%"}
{"compound": "COC(=O)CS(=O)(=O)c1nnc(C(Cc2ccccc2)NC(=O)OC(C)(C)C)o1 (stereo not given)", "result": "65%"}
{"compound": "CCN(c1ccccc1)S(=O)(=O)c1ccc(NC(=O)c2nc(S(C)(=O)=O)ncc2Cl)cc1", "result": "50%"}
{"compound": "COc1ccc([N+](=O)[O-])c(S(=O)(=O)c2ccc(Cl)cc2)n1", "result": "30%"}

* * *

tested on: Schistosoma mansoni; test: Antischistosomal activity against juvenile Schistosoma mansoni Puerto Rican incubated for 72 hrs by microscopic method; type: functional, organism-based

{"molecule": "CC1(C)CCC[C@]2(C)C(CC[C@@](C)(O)/C=C/c3ccc(F)cc3)[C@](C)(O)CC[C@@H]12 (stereo partly specified)", "IC50": "< 2000 nM"}

* * *

test system: Schistosoma mansoni; test: Antischistosomal activity against Schistosoma mansoni Puerto-Rican incubated for 72 hrs by inverted microscopic method; type: functional, organism-based
Recorded IC50 by entry
measured_parameter: IC50 (nM)

{"smiles_representation": "O=C(CCl)NCCOc1ccc(Cl)cc1Cl", "measured_parameter": "IC50", "measured_number": 3400}
{"smiles_representation": "COc1ccc(Nc2nc(NCc3ccccc3)c3ccccc3n2)cc1", "measured_parameter": "IC50", "measured_number": 800}
{"smiles_representation": "Brc1ccc(Nc2nc3ccccc3nc2Nc2ccc(Br)cc2)cc1", "measured_parameter": "IC50", "measured_number": 800}
{"smiles_representation": "Clc1cc(Br)ccc1-c1ccc(CNCC2CCNCC2)o1", "measured_parameter": "IC50", "measured_number": 6300}
